System: HIV-1 viral strain NL4-3
Assay: Anti-viral assay in vitro (MTT, infected MT-4 cells, six days)
Format: cell-based
Details: Human immunodeficiency virus 1, NL43, MT4, 144 h, read-out: ANTI-HIV-EC50 VIRAL STRAIN NL4-3
Endpoint label: pEC50
The value called pEC50 is obtained by taking minus log10 of the concentration in mol/L.

Answered examples (2):
{"columns": ["Compound", "pEC50"],
 "data": [
  ["Cc1cccnc1C(=O)N[C@@H](Cc1ccccc1Br)C(=O)NCCCC[C@@H](CO)N(CC(C)C)S(=O)(=O)c1ccc(N)cc1", 6.69],
  ["CC(C)CN([C@H](CO)CCCCNC(=O)[C@H](Cc1ccccc1Cl)NC(=O)c1ccncc1)S(=O)(=O)c1ccc(N)cc1", 6.84]
]}

Query compound follows.
[in] For the compound CC(C)CN([C@H](CO)CCCCNC(=O)C(Cc1ccccc1Br)NC(=O)c1ccncc1)S(=O)(=O)c1ccc(N)cc1 (stereo partly drawn) , what pEC50 is on record?
[out] 7.40

Source of measurements: patent US8742158B2
